Target: EGF receptor partially purified by A431 cell line (Homo sapiens)
Construct: A431 cell membrane fraction, which was used for the assay as an enzyme source of partially purified EGF receptor; endogenous in cells
Sequence (P00533 25-1210): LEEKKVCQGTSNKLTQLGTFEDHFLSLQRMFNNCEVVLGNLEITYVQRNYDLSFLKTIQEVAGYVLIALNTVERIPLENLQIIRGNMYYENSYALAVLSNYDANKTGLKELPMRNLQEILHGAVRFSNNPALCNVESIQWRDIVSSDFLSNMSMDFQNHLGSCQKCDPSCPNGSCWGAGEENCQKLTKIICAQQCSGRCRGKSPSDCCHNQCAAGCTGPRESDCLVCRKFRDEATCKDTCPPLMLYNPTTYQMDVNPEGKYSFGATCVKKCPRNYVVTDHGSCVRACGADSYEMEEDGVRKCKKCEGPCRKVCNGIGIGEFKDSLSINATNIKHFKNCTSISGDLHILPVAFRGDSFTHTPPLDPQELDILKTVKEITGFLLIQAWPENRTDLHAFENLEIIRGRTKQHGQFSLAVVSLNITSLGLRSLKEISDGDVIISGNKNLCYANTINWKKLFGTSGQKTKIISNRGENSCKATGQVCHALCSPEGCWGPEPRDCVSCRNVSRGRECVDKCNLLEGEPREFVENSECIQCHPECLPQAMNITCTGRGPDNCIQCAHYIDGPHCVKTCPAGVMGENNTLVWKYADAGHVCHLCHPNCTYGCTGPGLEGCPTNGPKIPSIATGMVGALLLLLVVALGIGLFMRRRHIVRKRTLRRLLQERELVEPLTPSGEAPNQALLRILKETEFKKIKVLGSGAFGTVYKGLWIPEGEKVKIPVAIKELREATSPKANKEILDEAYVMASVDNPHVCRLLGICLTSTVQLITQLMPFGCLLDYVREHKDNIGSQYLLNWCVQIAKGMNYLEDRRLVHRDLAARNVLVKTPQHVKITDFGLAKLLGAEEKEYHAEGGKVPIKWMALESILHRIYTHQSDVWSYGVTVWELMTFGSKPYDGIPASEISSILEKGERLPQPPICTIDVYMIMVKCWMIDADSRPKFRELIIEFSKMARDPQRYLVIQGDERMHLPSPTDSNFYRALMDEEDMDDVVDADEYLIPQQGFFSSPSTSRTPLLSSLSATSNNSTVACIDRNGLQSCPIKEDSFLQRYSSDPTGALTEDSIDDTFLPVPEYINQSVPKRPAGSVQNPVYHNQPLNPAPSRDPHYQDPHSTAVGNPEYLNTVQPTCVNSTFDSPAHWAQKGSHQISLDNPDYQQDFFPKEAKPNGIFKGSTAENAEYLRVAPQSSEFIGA
Experiment: EGFR tyrosine kinase inhibitory action (A431 cell membrane fraction, 32P-ATP, Angiotensin II substrate)
Details: EGF-stimulated, 10 μM ATP, in ice for 30 min
reportedProperty: IC50 (nM)

• CCOc1cc2ncnc(Nc3ccc(F)c(Cl)c3)c2cc1C#CC(C)(C)N(C)CCC#N = 2.8
• CN1CCC(N(C)C(C)(C)C#Cc2cc3ncnc(Nc4ccc(F)c(Cl)c4)c3cc2NS(C)(=O)=O)CC1 = 2.7
• CCOc1cc2ncnc(Nc3ccc(F)c(Cl)c3)c2cc1C#CC(C)(C)N1CCC(OC)CC1 = 3.3
• CCCN1CCN(C(C)(C)C#Cc2cc3c(Nc4ccc(F)c(Cl)c4)ncnc3cc2OC)CC1 = 3
• C=CC(=O)Nc1cc2c(Nc3ccc(F)c(Cl)c3)ncnc2cc1C#CC(C)(C)N(C)C1CCN(C)CC1 = 2.1
• CCOc1cc2ncnc(Nc3ccc(F)c(Cl)c3)c2cc1C#CC(C)(C)N(C)CCOC = 2.2
• C#Cc1cccc(Nc2ncnc3cc(OCC)c(C#CC(C)(C)N(C)CCN(C)C)cc23)c1 = 2.6
